# Target Desc: PDE3 (Homo sapiens, UniProt Q14432)
# Construct: were investigated in homogenates of human blood platelets; from tissue; host or cells: homogenates of human blood platelets
# Sequence (Q14432 whole entry): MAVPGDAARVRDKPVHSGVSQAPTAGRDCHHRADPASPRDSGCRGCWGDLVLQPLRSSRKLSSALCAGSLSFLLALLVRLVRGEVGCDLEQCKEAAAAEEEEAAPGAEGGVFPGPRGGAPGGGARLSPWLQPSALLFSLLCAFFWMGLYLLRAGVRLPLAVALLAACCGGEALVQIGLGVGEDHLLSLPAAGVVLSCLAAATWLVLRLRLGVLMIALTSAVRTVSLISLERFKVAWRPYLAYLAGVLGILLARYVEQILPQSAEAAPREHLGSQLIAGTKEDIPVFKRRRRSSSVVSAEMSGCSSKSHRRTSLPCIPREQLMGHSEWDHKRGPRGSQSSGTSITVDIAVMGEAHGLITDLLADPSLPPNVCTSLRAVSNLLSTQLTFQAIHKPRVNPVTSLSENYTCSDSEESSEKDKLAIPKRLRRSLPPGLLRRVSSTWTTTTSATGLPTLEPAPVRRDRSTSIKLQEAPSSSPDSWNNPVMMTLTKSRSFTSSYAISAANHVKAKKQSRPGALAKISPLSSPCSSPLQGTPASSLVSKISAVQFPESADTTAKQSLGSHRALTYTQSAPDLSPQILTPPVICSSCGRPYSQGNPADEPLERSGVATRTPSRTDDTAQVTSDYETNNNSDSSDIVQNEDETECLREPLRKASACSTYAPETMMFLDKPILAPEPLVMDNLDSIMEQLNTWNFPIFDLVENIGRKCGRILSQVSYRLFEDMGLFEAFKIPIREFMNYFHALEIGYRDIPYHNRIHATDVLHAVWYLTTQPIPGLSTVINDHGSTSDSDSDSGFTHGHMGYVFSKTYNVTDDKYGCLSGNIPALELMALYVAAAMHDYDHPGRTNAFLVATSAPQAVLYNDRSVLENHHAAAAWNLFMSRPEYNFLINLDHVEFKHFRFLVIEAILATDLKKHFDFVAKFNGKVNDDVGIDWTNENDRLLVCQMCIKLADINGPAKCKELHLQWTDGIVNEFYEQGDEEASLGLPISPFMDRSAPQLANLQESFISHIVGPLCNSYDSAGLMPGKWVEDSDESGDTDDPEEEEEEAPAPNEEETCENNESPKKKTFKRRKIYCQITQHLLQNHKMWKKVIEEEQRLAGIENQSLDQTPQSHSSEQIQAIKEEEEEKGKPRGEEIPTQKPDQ
# Experimental Details: Inhibition of PDE isoenzymes: PDE3 (cGMP-inhibited), homogenates of human blood platelets
# Format: biochemical
# Protocol Conditions: cAMP or cGMP as substrate, 0.5 μM, pH 7.4, 37° C., 15 min, read-out: PDE3 -log IC50 (converted)
Counter-ions that a name gives are not always drawn.
# note: boundary value 200 nM maps to N; IC50 below it maps to Y

Please determine if COc1cc2c(cc1OC)[C@@H]1CN(C)CC[C@@H]1N=C2c1ccc(-c2nnn(C)n2)cc1 (single isomer, unassigned) is below 200 nM in terms of IC50.
N

Next:
Please determine if COc1ccc(Cn2nnc(-c3ccc(C4=N[C@H]5CCN(C)C[C@H]5c5cc(OC)c(OC)cc54)cc3)n2)cc1 (single isomer, unassigned) [Compound 7, hydrochloride] is below 200 nM in terms of IC50.
Y

Ok, now CCOc1cc2c(cc1OC)C(c1ccc(-c3nn[nH]n3)cc1)=N[C@H]1CCN(C)C[C@@H]21 (single isomer, unassigned)
Y

Ok, now CCOc1cc2c(cc1OC)[C@@H]1CN(C)CC[C@@H]1N=C2c1ccc(-c2nnn(CC)n2)cc1 (single isomer, unassigned) [Compound 10, hydrochloride]
N

Ok, now CCn1nnc(-c2ccc(C3=N[C@H]4CCN(C)C[C@H]4c4cc(OC)c(OC)cc43)cc2)n1 (single isomer, unassigned) [Compound 2, hydrochloride]
N

Ok, now COc1cc2c(cc1OC)[C@@H]1CN(C)CC[C@@H]1N=C2c1ccc(-c2nn[nH]n2)cc1 (single isomer, unassigned)
Y

Ok, now CCCCCCn1nnc(-c2ccc(C3=N[C@H]4CCN(C)C[C@H]4c4cc(OCC)c(OC)cc43)cc2)n1 (single isomer, unassigned) [Compound 15, hydrochloride]
N

Ok, now CCOc1cc2c(cc1OC)C(c1ccc(-c3nnn(CC)n3)cc1)=N[C@H]1CCN(C)C[C@@H]21 (single isomer, unassigned)
Y

Ok, now CCCn1nnc(-c2ccc(C3=N[C@H]4CCN(C)C[C@H]4c4cc(OCC)c(OC)cc43)cc2)n1 (single isomer, unassigned) [Compound 16, hydrochloride]
N

These data points were gathered from patent US6143759A.
